Tested on: NCI-H1876 complex spheroid viability
Assay Protocol: Anticancer human tumor NCI-H1876 cell line growth inhibition [LSD1];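 also: spheroids exposed to compounds for one week before readout; 100% = DMSO vehicle-treated spheroids so lower means fewer viable cells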
Settings: second compound 0.316 µM; first compound 0.949 µM; hits give low values
Binarize viability, T/C at 40%; below is 1, at or above is 0.

Recorded results for 8 compounds are shown here.
{"Compound": "Nc1ccccc1NC(=O)c1ccc(CNC(=O)OCc2cccnc2)cc1 + NC1CCC(NC2CC2c2ccccc2)CC1", "Group Label": 1}
{"Compound": "CCN(c1cc(-c2ccc(CN3CCOCC3)cc2)cc(C(=O)NCc2c(C)cc(C)[nH]c2=O)c1C)C1CCOCC1 + NC1CC1c1ccc(-c2cccc(O)c2)cc1", "Group Label": 0}
{"Compound": "COc1cc(C2c3cc4c(cc3C(OC3OC5COC(C)OC5C(O)C3O)C3COC(=O)C23)OCO4)cc(OC)c1O (stereo not given) + NC1CC1c1ccc(-c2cccc(O)c2)cc1", "Group Label": 1}
{"Compound": "O=C(C=Cc1cccc(S(=O)(=O)Nc2ccccc2)c1)NO + NC1CC1c1ccc(-c2cccc(O)c2)cc1", "Group Label": 1}
{"Compound": "Nc1ccccc1NC(=O)c1ccc(CNC(=O)OCc2cccnc2)cc1 + NC1CC1c1ccc(-c2cccc(O)c2)cc1", "Group Label": 1}
{"Compound": "COc1cc(C2c3cc4c(cc3C(OC3OC5COC(C)OC5C(O)C3O)C3COC(=O)C23)OCO4)cc(OC)c1O (stereo not given) + NC1CCC(NC2CC2c2ccccc2)CC1", "Group Label": 1}
{"Compound": "NS(=O)(=O)OCC1CC(n2ccc3c(NC4CCc5ccccc54)ncnc32)CC1O (stereo not given) + NC1CC1c1ccc(-c2cccc(O)c2)cc1", "Group Label": 0}
{"Compound": "NS(=O)(=O)OCC1CC(n2ccc3c(NC4CCc5ccccc54)ncnc32)CC1O (stereo not given) + NC1CCC(NC2CC2c2ccccc2)CC1", "Group Label": 1}

-- ask Determine if O=C(C=Cc1cccc(S(=O)(=O)Nc2ccccc2)c1)NO + NC1CCC(NC2CC2c2ccccc2)CC1 shows viability, T/C strictly lower than 40%.
-- reply 1

-- ask Determine if CCN(c1cc(-c2ccc(CN3CCOCC3)cc2)cc(C(=O)NCc2c(C)cc(C)[nH]c2=O)c1C)C1CCOCC1 + NC1CCC(NC2CC2c2ccccc2)CC1 shows viability, T/C strictly lower than 40%.
-- reply 0

Values from PubChem BioAssay AID1918957
